// data source = ChEMBL document CHEMBL6134783

assay: Neurotoxicity against non-differentiated human SH-SY5Y cells assessed as reduction in cell viability at 100 uM measured after 24 hrs by MTT assay relative to control; assay type: toxicity, cell-based
// returns F unless Activity is strictly below 90%, in which case T

COC(=O)CC[C@H](NC(=O)[C@@H]1[C@H]2CC[C@H](C2)N1C(=O)CNC(=O)OC(C)(C)C)C(=O)N[C@@H]1CCc2ccccc21
T
COC(=O)CC[C@H](NC(=O)[C@@H]1[C@H]2CC[C@H](C2)N1C(=O)CN(C)C)C(=O)NC12CC3CC(CC(C3)C1)C2
F

Alright, here's another compound for you.
Ask: Is Activity strictly under 90% for the entry "COC(=O)[C@H](CCC(=O)NC12CC3CC(C)(CC(C)(C3)C1)C2)NC(=O)[C@@H]1[C@H]2CC[C@H](C2)N1C(=O)CN.O=C(O)C(F)(F)F" ?
Result: T
